FYI, the data here is from PubChem BioAssay AID248.

Test system: L1210 leukemia ip in BDF1 mice, survival T/C
Test: NCI In Vivo Anticancer Drug Screen. Data for tumor model L1210 Leukemia (intraperitoneal) in B6D2F1 (BDF1) mice
Conditions: endpoint: mean survival time; dose: 200.0 mg/kg/injection; schedule: Q04DX003 (ip); vehicle: Klucel (hydroxypropylcellulose) (HPC); higher = longer survival
Toxic doses and inconclusive results are not listed. Peptide text beside a SMILES is read from it. * marks the point of attachment. Cbz = O=C(OCc1ccccc1)*
quantity-name: T/C

{"molecule": "N#C/C(=C/c1ccc(O)cc1)C(=O)O", "reported-value": "94 % of control"}
{"molecule": "O=[N+]([O-])c1ccccc1S(=O)(=O)N1CCN(S(=O)(=O)c2ccccc2[N+](=O)[O-])C1", "reported-value": "96 % of control"}
{"molecule": "COc1ccccc1C(=O)N/N=C/c1ccccc1Cl", "reported-value": "111 % of control"}
{"molecule": "CC[n+]1ccc(/C=C\\c2c(Cl)cccc2Cl)cc1", "reported-value": "100 % of control"}
{"molecule": "CC(=O)NN1C(=O)c2ccccc2C1=O", "reported-value": "101 % of control"}
{"molecule": "COc1ccc(OC(=O)Nc2ccc(SC)cc2)cc1", "reported-value": "96 % of control"}
{"molecule": "Cc1cc(=O)n2c3c(c(N)ccc13)OC2", "reported-value": "100 % of control"}
{"molecule": "c1cncc(-c2ncnc3c2Cc2ccccc2-3)c1", "reported-value": "111 % of control"}
{"molecule": "CCOc1ccc(/C=C(\\NC(=O)c2ccccc2)C(=O)Nc2ccccc2)cc1OC", "reported-value": "87 % of control"}
{"molecule": "CCOC(=O)c1cccs1", "reported-value": "100 % of control"}
{"molecule": "Cc1ccc(Cl)cc1NC(=O)COc1ccc(Cl)cc1", "reported-value": "88 % of control"}
{"molecule": "CCOP1(=S)OCCO1", "reported-value": "103 % of control"}
{"molecule": "CCOc1ccccc1NC(=O)COc1ccc(Cl)cc1", "reported-value": "101 % of control"}
{"molecule": "NC(=O)c1ccccc1C(N)=O", "reported-value": "102 % of control"}
{"molecule": "CCOC(=O)Nc1cc(N)c2nnn(C(c3ccccc3)c3ccccc3)c2n1", "reported-value": "91 % of control"}
{"molecule": "CC(O)C(Cc1ccccc1)NC(=O)C(=O)NC(Cc1ccccc1)C(C)O (stereo not drawn)", "reported-value": "90 % of control"}
{"molecule": "CC(=O)OC1c2ccccc2C(=O)C1(OC(C)=O)c1ccccc1 (stereo not drawn)", "reported-value": "100 % of control"}
{"molecule": "CC(C)OC(CCCl)c1ccccc1 (stereo not drawn)", "reported-value": "102 % of control"}
{"molecule": "CC(C)(O)C(C)(O)c1ccc(Cl)cc1 (stereo not drawn)", "reported-value": "106 % of control"}
{"molecule": "COC(=O)C(CCSC)NC(=O)CNC(=O)OCc1ccccc1 (stereo not drawn)", "reported-value": "97 % of control"}
{"molecule": "CCOC(=O)C1CCC(NC(=O)c2ccccc2)CC1 (stereo not drawn)", "reported-value": "98 % of control"}
{"molecule": "CC(=O)CC(=O)Nc1cccc([N+](=O)[O-])c1", "reported-value": "91 % of control"}
{"molecule": "Nc1nc(N)nc(-c2ccccc2N=NN2CCCCC2)n1", "reported-value": "94 % of control"}
{"molecule": "COc1ccc(CCNC(=O)C(=O)NCCc2ccc(OC)c(OC)c2)cc1OC", "reported-value": "89 % of control"}
{"molecule": "COC(=O)C12c3ccccc3C(c3ccccc31)c1c(N=O)ccc(NO)c12", "reported-value": "102 % of control"}
{"molecule": "CCCCCCCCCCCCCCCCS(=O)(=O)c1ccc(NN)cc1", "reported-value": "98 % of control"}
{"molecule": "O=[N+]([O-])c1ccc(N2CCCC2)c([N+](=O)[O-])c1", "reported-value": "92 % of control"}
{"molecule": "COCc1cc(C(C)(C)C)c(O)c(C(C)(C)C)c1", "reported-value": "96 % of control"}
{"molecule": "COc1ccc(Cl)cc1NC(=O)c1cccc(C(=O)Nc2cc(Cl)ccc2OC)c1", "reported-value": "94 % of control"}
{"molecule": "CC1=CC2(C)CCC(=O)C(Cc3c(CCCC4(C)OCCO4)noc3C)=C2CC1 (stereo not drawn)", "reported-value": "95 % of control"}
{"molecule": "COc1ccc(Cl)cc1NC(=O)Nc1ccc(Nc2ccccc2)cc1", "reported-value": "98 % of control"}
{"molecule": "OCCc1c[nH]c2ccccc12", "reported-value": "94 % of control"}
{"molecule": "CCOC(=O)CNC(=O)C(CC(C)C)NC(=O)C1CCCN1C(=O)OCc1ccccc1 (stereo not drawn) (Cbz-Pro-Leu-Gly-OEt; configuration not given here)", "reported-value": "93 % of control"}
{"molecule": "N=C(N)/C(N)=N\\C1=NCCN1", "reported-value": "93 % of control"}
{"molecule": "Cc1cccc(CN2CCN(C(c3ccccc3)c3ccc(Cl)cc3)CC2)c1 (stereo not drawn)", "reported-value": "118 % of control"}
{"molecule": "CCOC(=O)C(C)N (stereo not drawn)", "reported-value": "102 % of control"}
{"molecule": "CC(=O)Oc1ccc2c(c1)oc(=O)c1ccc(C)cc12", "reported-value": "87 % of control"}
{"molecule": "Nc1c(Br)cc(O)c2c1C(=O)c1ccccc1C2=O", "reported-value": "100 % of control"}
{"molecule": "CCCCOc1ccc(C(=O)N/N=C\\c2cc(OC)c(OC)c(OC)c2)cc1", "reported-value": "94 % of control"}
{"molecule": "N#C/C(=C\\c1ccccc1)C(=O)Nc1ccccc1", "reported-value": "92 % of control"}
{"molecule": "CC1=N/C(=C/c2ccccc2Cl)C(=O)O1", "reported-value": "98 % of control"}
{"molecule": "CCCCCCCC(=O)Nc1ccc(C)cc1", "reported-value": "98 % of control"}
{"molecule": "COC1=C(c2ccccc2)P(=O)(Cc2ccccc2)C2CCCC12 (stereo not drawn)", "reported-value": "96 % of control"}
{"molecule": "OC(c1ccccc1)(c1ccccc1)C(O)(c1ccccc1)c1ccccc1", "reported-value": "88 % of control"}
{"molecule": "CO/C(=N\\S(=O)(=O)c1ccccc1)C1CC=CCC1/C(=N\\S(=O)(=O)c1ccccc1)OC (stereo not drawn)", "reported-value": "94 % of control"}
{"molecule": "CCCCCCCCCCCCCCCC(=O)O", "reported-value": "98 % of control"}
{"molecule": "O=C(O)C1C2CCC3C(C(=O)O)C3C21 (stereo not drawn)", "reported-value": "101 % of control"}
{"molecule": "CCOC(=O)/C(C(C)=O)=C(/O)c1ccc(OC(F)(F)C(F)Cl)cc1OC(F)(F)C(F)Cl.CCOC(=O)/C(C(C)=O)=C(/O)c1ccc(OC(F)(F)C(F)Cl)cc1OC(F)(F)C(F)Cl.[Cu] (stereo not drawn)", "reported-value": "101 % of control"}
